- TARGET: LRRK2(G2019S mutation, GST-LRRK2(amino acids 970-2527)) (Homo sapiens, UniProt Q5S007, G2019S)
- Construct: GST-LRRK2(amino acids 970-2527); GST (N); purchased Life Technologies Corporation
- Sequence (Q5S007 970-2527 G2019S): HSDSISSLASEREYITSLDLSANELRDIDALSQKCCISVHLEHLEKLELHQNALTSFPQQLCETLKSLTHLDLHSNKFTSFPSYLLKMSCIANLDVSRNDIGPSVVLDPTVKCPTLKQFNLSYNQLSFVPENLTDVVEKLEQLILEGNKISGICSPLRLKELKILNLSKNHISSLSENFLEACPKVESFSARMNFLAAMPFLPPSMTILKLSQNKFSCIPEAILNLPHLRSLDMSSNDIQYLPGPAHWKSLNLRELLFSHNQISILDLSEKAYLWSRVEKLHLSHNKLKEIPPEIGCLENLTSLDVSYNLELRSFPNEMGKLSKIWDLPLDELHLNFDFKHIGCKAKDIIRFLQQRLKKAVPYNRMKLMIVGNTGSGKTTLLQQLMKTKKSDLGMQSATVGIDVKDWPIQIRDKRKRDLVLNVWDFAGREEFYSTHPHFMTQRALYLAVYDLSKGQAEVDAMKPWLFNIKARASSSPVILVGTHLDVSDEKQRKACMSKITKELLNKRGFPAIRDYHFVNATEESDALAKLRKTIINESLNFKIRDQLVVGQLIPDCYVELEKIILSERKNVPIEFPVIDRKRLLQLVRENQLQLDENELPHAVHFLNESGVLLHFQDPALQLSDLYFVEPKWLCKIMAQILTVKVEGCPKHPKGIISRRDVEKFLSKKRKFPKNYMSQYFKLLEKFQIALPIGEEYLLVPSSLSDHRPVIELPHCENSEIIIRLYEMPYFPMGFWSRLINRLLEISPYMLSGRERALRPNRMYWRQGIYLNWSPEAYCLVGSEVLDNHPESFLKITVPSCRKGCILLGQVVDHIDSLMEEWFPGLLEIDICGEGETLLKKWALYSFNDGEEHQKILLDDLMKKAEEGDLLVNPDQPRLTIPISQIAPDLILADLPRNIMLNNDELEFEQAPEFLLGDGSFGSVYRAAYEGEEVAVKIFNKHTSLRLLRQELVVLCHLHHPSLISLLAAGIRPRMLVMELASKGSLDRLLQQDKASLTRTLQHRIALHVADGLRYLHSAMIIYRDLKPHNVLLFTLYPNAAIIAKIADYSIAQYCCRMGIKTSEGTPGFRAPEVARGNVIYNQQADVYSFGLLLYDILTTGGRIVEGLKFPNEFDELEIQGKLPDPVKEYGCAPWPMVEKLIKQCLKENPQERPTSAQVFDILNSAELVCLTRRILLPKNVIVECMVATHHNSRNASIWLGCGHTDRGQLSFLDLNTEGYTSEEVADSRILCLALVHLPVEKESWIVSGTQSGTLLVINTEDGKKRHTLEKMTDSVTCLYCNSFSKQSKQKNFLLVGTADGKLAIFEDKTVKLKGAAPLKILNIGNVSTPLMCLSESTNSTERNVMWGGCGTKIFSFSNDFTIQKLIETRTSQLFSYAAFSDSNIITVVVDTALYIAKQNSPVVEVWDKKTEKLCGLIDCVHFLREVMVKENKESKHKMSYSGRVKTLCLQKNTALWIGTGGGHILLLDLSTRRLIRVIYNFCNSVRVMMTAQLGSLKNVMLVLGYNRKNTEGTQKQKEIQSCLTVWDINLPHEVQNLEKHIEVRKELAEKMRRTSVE
- ASSAY NOTES: LRRK2 Km ATP LanthaScreen Assay
- Type: biochemical
- EXPERIMENTAL PARAMETERS: Km ATP LanthaScreen; mean IC50 of several tests; read-out: LRRK2 IC50
RECORDED ENDPOINT: log10(IC50) (log10 of the value in nM)
Please be aware that the numbers have been log10-transformed from IC50 in nM.

Dear reader, for each entry below, please note its log10(IC50).
1. O=C(c1ccccc1)c1ccc2[nH]nc(-c3ccnc(N4CCOCC4)c3)c2c1
2. CC(C)Oc1ccc2[nH]nc(-c3ccnc(N4CCC(CCN)CC4)c3)c2c1
3. COc1ccc(-c2ccc3[nH]nc(-c4ccnc(N5CCOCC5)c4)c3c2)cn1
4. CC(C)Oc1ccc2[nH]nc(-c3ccnc(N4CCN(C)C(C)C4)c3)c2c1 (stereo not drawn)
5. COc1cccc(S(=O)(=O)Nc2cc(-c3n[nH]c4ccc(OC(C)C)cc34)ccn2)c1
6. COCCNc1cc(-c2n[nH]c3ccc(OC(C)C)cc23)ccn1
7. N#Cc1ccc2c(-c3ccnc(N4CCOCC4)c3)n[nH]c2c1

0.53
0.83
1.15
0.34
1.89
0.77
1.69

Dear reader, for each entry below, please note its log10(IC50).
1. CCCOc1ccc2[nH]nc(-c3ccnc(N4CCCCC4)c3)c2c1
2. CCCOc1ccc2[nH]nc(-c3ccnc(N4CCN(C)C(=O)C4)c3)c2c1

1.49
1.18

----------
Would you kindly list pIC50 for each of these molecules?
- TARGET: LRRK2(G2019S mutation, GST-LRRK2(amino acids 970-2527)) (Homo sapiens, UniProt Q5S007, G2019S)
- Construct: GST-LRRK2(amino acids 970-2527); GST (N); purchased Life Technologies Corporation
- ASSAY NOTES: LRRK2 Km ATP LanthaScreen Assay
- Type: biochemical
- EXPERIMENTAL PARAMETERS: Km ATP LanthaScreen Assay; LRRK2 G2019S; mean IC50 values; read-out: LRRK2 IC50
Numbers only, as −log10 of the molar value.

# count of solved cases: 8
{"MOLECULE": "Cc1cc(CC(=O)Nc2cc(-c3n[nH]c4ccc(OC(C)C)cc34)ccn2)on1", "pIC50": 7.87}
{"MOLECULE": "CCOc1ccc2[nH]nc(-c3ccnc(N4CCC4)c3)c2c1", "pIC50": 7.53}
{"MOLECULE": "Oc1cc(-c2ccc3[nH]nc(-c4ccnc(N5CCC(O)CC5)c4)c3c2)ccn1", "pIC50": 8.85}
{"MOLECULE": "NC(=O)C1CCCN(c2cc(-c3n[nH]c4ccccc34)ccn2)C1 (stereo not drawn)", "pIC50": 7.80}
{"MOLECULE": "CNCc1ccc2[nH]nc(-c3ccnc(N4CCOCC4)c3)c2c1", "pIC50": 6.52}
{"MOLECULE": "O=C(O)[C@H]1CCCN(c2cc(-c3n[nH]c4ccccc34)ccn2)C1", "pIC50": 7.62}
{"MOLECULE": "CCc1nnc2n1CCN(c1cc(-c3n[nH]c4ccc(OC(F)(F)F)cc34)ccn1)C2", "pIC50": 6.72}
{"MOLECULE": "CN(C)Cc1ccc2[nH]nc(-c3ccnc(N4CCOCC4)c3)c2c1", "pIC50": 7.46}

Pending molecule:
What does the record list as pIC50 for `CC(C)Oc1ccc2[nH]nc(-c3ccnc(NCCc4ccccn4)c3)c2c1` ?
9.10
